// reported viability, T/C for each item listed
# Tested on: 556581-035-R-J1-PDC complex spheroid viability
# test-summary: Anticancer human tumor 556581-035-R-J1-PDC patient-derived ovarian carcinoma cell line growth inhibition
# condition-set: second compound 3.16 µM; first compound 0.316 µM; active compounds read low
Provide the reading as a plain figure in %.

compound	viability, T/C [%]
Nc1ncn(C2CC(O)C(CO)O2)c(=O)n1 (stereo unspecified) + NC1CCC(NC2CC2c2ccccc2)CC1	80.5
CC1(C)CCC(CN2CCN(c3ccc(C(=O)NS(=O)(=O)c4ccc(NCC5CCOCC5)c([N+](=O)[O-])c4)c(Oc4cnc5[nH]ccc5c4)c3)CC2)=C(c2ccc(Cl)cc2)C1 + NC1CC1c1ccc(-c2cccc(O)c2)cc1	72.2
COc1cc(Nc2ncc3c(n2)-c2ccc(Cl)cc2C(c2c(F)cccc2OC)=NC3)ccc1C(=O)O + NC1CC1c1ccc(-c2cccc(O)c2)cc1	56
CC1COCCN1c1cc(C2(S(C)(=N)=O)CC2)nc(-c2ccnc3[nH]ccc23)n1 (stereo unspecified) + NC1CCC(NC2CC2c2ccccc2)CC1	79.4
CC1COCCN1c1cc(C2(S(C)(=N)=O)CC2)nc(-c2ccnc3[nH]ccc23)n1 (stereo unspecified) + NC1CC1c1ccc(-c2cccc(O)c2)cc1	85.5

Here's the next entry for you.
**Q:** # lookup: viability, T/C of O=C(c1cc(Cc2n[nH]c(=O)c3ccccc23)ccc1F)N1CCN(C(=O)C2CC2)CC1 + NC1CCC(NC2CC2c2ccccc2)CC1
**A:** 77.6

----------
# System: 556581-035-R-J1-PDC complex spheroid viability
# test-summary: Anticancer human tumor 556581-035-R-J1-PDC cell line growth inhibition;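 also: spheroids exposed to agents for seven days; 100% = DMSO vehicle control wells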
# condition-set: second compound 0.1 µM; first compound 0.00949 µM; active compounds read low
// reported viability, T/C for each item listed
Provide the reading as a plain figure in %.

Here's what some known entries look like.
compound	measured-endpoint	measured-number
CCc1c2c(nc3ccc(O)cc13)-c1cc3c(c(=O)n1C2)COC(=O)[C@]3(O)CC + NC1CCC(NC2CC2c2ccccc2)CC1	viability, T/C	2.17
NS(=O)(=O)OCC1CC(n2ccc3c(NC4CCc5ccccc54)ncnc32)CC1O (stereo unspecified) + NC1CCC(NC2CC2c2ccccc2)CC1	viability, T/C	117
O=C(C=Cc1cccc(S(=O)(=O)Nc2ccccc2)c1)NO + NC1CC1c1ccc(-c2cccc(O)c2)cc1	viability, T/C	85.4
Nc1ccn(C2OC(CO)C(O)C2(F)F)c(=O)n1 (stereo unspecified) + NC1CCC(NC2CC2c2ccccc2)CC1	viability, T/C	43.3
CCN(c1cc(-c2ccc(CN3CCOCC3)cc2)cc(C(=O)NCc2c(C)cc(C)[nH]c2=O)c1C)C1CCOCC1 + NC1CC1c1ccc(-c2cccc(O)c2)cc1	viability, T/C	106

**Q:** # lookup: viability, T/C of Nc1ccccc1NC(=O)c1ccc(CNC(=O)OCc2cccnc2)cc1 + NC1CC1c1ccc(-c2cccc(O)c2)cc1
**A:** 91.9

**Q:** # lookup: viability, T/C of O=C(C=Cc1cccc(S(=O)(=O)Nc2ccccc2)c1)NO + NC1CCC(NC2CC2c2ccccc2)CC1
**A:** 85.6

**Q:** # lookup: viability, T/C of Nc1ncn(C2CC(O)C(CO)S2)c(=O)n1 (stereo unspecified) + NC1CCC(NC2CC2c2ccccc2)CC1
**A:** 99.5
